test system: methicillin-susceptible Staphylococcus epidermidis CANWARD-2008 81388; assay type: cell-based; settings: methicillin-susceptible CANWARD-2008 81388
Peptide text beside a SMILES is read from it. * marks the point of attachment. Palmitoyl = CCCCCCCCCCCCCCCC(=O)*; Lauroyl = CCCCCCCCCCCC(=O)*
Task for the reader: assign each of the following compounds its reported MIC.
Give bare numbers, in µg/mL.

CCCCCCCCCCCC(=O)N1CCC[C@H]1C(=O)N[C@@H](CCCNC(=N)N)C(=O)N1CCC[C@H]1C(=O)NCC(=O)N1CCC[C@H]1C(=O)N[C@@H](CCCNC(=N)N)C(=O)N1CCC[C@H]1C(N)=O [Compound C12-PGP, CH3(CH2)10CO-PRPGPRP-NH2] (Lauroyl-PRPGPRP-NH2)	128

// input: 3 compounds below; output: MIC for each
1. CCCCCCCCCCCCCCCC(=O)N1CCC[C@H]1C(=O)N[C@@H](CCCNC(=N)N)C(=O)N1CCC[C@H]1C(=O)N[C@@H](CCCNC(=N)N)C(=O)N1CCC[C@H]1C(=O)N[C@@H](CCCNC(=N)N)C(=O)N1CCC[C@H]1C(N)=O [Compound C16-PRP, CH3(CH2)14CO-PRPRPRP-NH2] (Palmitoyl-PRPRPRP-NH2)
2. CCCCCCCCCCCCCCCC(=O)N1CCC[C@H]1C(=O)N[C@@H](CCCNC(=N)N)C(=O)N1CCC[C@H]1C(=O)N[C@@H](Cc1c[nH]c2ccccc12)C(=O)N1CCC[C@H]1C(=O)N[C@@H](CCCNC(=N)N)C(=O)N1CCC[C@H]1C(N)=O [Compound C16-PWP, CH3(CH2)14CO-PRPWPRP-NH2] (Palmitoyl-PRPWPRP-NH2)
3. CCCCCCCCCCCC(=O)N1CCC[C@H]1C(=O)N[C@@H](CCCNC(=N)N)C(=O)N1CCC[C@H]1C(=O)N[C@@H](Cc1c[nH]c2ccccc12)C(=O)N1CCC[C@H]1C(=O)N[C@@H](CCCNC(=N)N)C(=O)N1CCC[C@H]1C(N)=O [Compound C12-PWP, CH3(CH2)10CO-PRPWPRP-NH2] (Lauroyl-PRPWPRP-NH2)

Result string:
1. 4
2. 4
3. 16

Kindly give each listed record's MIC.
1. CCCCCCCCCCCC(=O)N1CCC[C@H]1C(=O)N[C@@H](CCCNC(=N)N)C(=O)N1CCC[C@H]1C(=O)N[C@@H](CCCNC(=N)N)C(=O)N1CCC[C@H]1C(=O)N[C@@H](CCCNC(=N)N)C(=O)N1CCC[C@H]1C(N)=O [Compound C12-PRP, CH3(CH2)10CO-PRPRPRP-NH2] (Lauroyl-PRPRPRP-NH2)
2. CCCCCCCCCCCCCCCC(=O)N1CCC[C@H]1C(=O)N[C@@H](CCCNC(=N)N)C(=O)N1CCC[C@H]1C(=O)N[C@@H](CC(C)C)C(=O)N1CCC[C@H]1C(=O)N[C@@H](CCCNC(=N)N)C(=O)N1CCC[C@H]1C(N)=O [Compound C16-PLP, CH3(CH2)14CO-PRPLPRP-NH2] (Palmitoyl-PRPLPRP-NH2)
3. CCCCCCCCCCCC(=O)N1CCC[C@H]1C(=O)N[C@@H](CCCNC(=N)N)C(=O)N1CCC[C@H]1C(=O)N[C@@H](CC(C)C)C(=O)N1CCC[C@H]1C(=O)N[C@@H](CCCNC(=N)N)C(=O)N1CCC[C@H]1C(N)=O [Compound C12-PLP, CH3(CH2)10CO-PRPLPRP-NH2] (Lauroyl-PRPLPRP-NH2)

Result string:
[32, 32, 64]
